test: Bioelution in simulated gastric fluid; conditions: simulated gastric fluid pH 1.5, 2 h, 37°C
# Bioelution of Co in gastric fluid (% release), 2 h values compiled below
Could you give me the number in % release? Just the number is fine.

compound	value
O.O.O.O.O.O.[Cl-].[Cl-].[Co+2] [CoCl2, Cobalt dichloride hexahydrate]	98.5
[O]=[Co][OH] [CoOOH, Cobalt oxyhydroxide]	0.85
[O]=[Co].[O]=[Co][O][Co]=[O] [Co3O4, Tricobalt tetraoxide]	0.2
[Li+].[O]=[Co][O-] [CoLiO2, Cobalt lithium oxide]	5.9

Moving on to another compound below.
The measured Bioelution of Co in gastric fluid (% release), 2 h associated with O.O.O.O.O.O.O.O=S(=O)([O-])[O-].[Co+2] [CoSO4, Cobalt sulfate heptahydrate] reads 99.7

Source: paper PMC7098370
